Assay: yeast display, Sf9 membrane polyspecificity reagent, FACS + sequencing; frameworks hold sequencing errors
test readout: polyreactivity (PSR sort gate)

Some sequences with recorded polyreactivity (PSR sort gate):
INSERT INTO assay_data (sequence_data, result) VALUES
  ('QVQLVESGGGLVQAGGSLRLSCAASGRIFQYYVMGWYRKAPGKERELVAAITRRGTNTYYADSVKGRFTISRDNAMNTVYLQMNSLKPEDTAVYYCAAEAQTKWWDYYYWGQGTQVTVSS', 'high polyreactivity'),
  ('QFQLVESGGGLVQAGGSLRLSCAASGRIFVINAMGWYRKATGIETELVAAISSSGGSTSYADSVKGRFTISRDNAKNTVYLQMNSLKPEDTAVYYCADKPRVRRDDGYYWGQGTLVTVSS', 'high polyreactivity'),
  ('QFQLVESGGGLVQAGGSLRLSCAASGSIFDYYDLGWSRKAPGKERELGAAINWSGGITYYADSVKGRFTISRDNAKNTVYLQMNSLKPEDTGVYYCAADWYQWVYSSSITSFDYWGQGTQVTVSS', 'low polyreactivity'),
  ('QVQLVESGGGLVQAGGSLRLSCAASGSIFPSYAMGWYRQAPGKERELVAAISRSAGSTYYADSVKGRFTISRDNAKNTVYLQMNSLKPEDTAVYYCAADGYSSRYRYDYWGQGTQVTVSS', 'low polyreactivity'),
  ('QVHLVESGGGLVQAGGSLRLSCAASGRIFSNNAMGWYRQAPGKERELVATITGSGGRTYYADSVKGRFTISRDNAKNTVYLQMNSLKPEDTAVYYCAAVKRPDYYYWGQGTQVTVSS', 'high polyreactivity');

Continue with the next sequence.
Q: Returns the measured polyreactivity (PSR sort gate) for the input sequence. Input: QVQLVESGGGLVQAGGSLRLSCAASGSTFEYYAMGWYRQAPGKERELVAAISRGGSTYYADSVKGRFTISRDNAKNTVYLQMNSLKPEDTAVYYCAAAPDYRAEYDYWGQGTQVTVSS
Result: low polyreactivity

----------
Assay: yeast display, Sf9 membrane polyspecificity reagent, FACS + sequencing; frameworks hold sequencing errors
test readout: polyreactivity (PSR sort gate)

Please review the entries below; each comes with its answer.
INSERT INTO assay_data (sequence_data, result) VALUES
  ('QVQLVESGGRLVQAGGSLRLSCAASGSTIVRNGMGWYRQAPGKERELVAAITRGGSTYYADSVKGRFTISRDNAKNTVYLQMNSLKPEDTAVYYCATYDPARSTQGYDYWGQGTQVTVSS', 'high polyreactivity'),
  ('QVQLVESGGGLVQAGGSLRLSCAASGRILHEYAMGWYRQAPGKERELVAAITFSGTSTYYADSVKGRFTISRDNAKNTVYLQMNSLKPEDTAVYYCAADTYGGSRDYWGQGTQVTVSS', 'low polyreactivity'),
  ('QVQLEESGGGLVQAGVSLRLSCAASGSTFGYYAMGWSRQAPGKERELVAAITSGGTTNYADYVKGRFTISRYNEKNTVYLQMYSLKPEDTAVYYCNAVGTFVRYWTDGRDGVTYDFWGQGTQVTVSS', 'low polyreactivity'),
  ('QVQLVESGGGLVQAGGSLRLSCAASGYTIFFNVMGGYRQAPGKERELVAAISYSGGSTNYADSVKGRFTISRDNAKNTVYLQMNSLKPEDTAVYYCNTVRSPPGHVYWGEGTQVTVSS', 'low polyreactivity'),
  ('QVQLVESGGGLVQAGGSLRLSCAASGLTFYVYAMGWYRQAPGKERELVAAISSGGRTYYADSVKGRFTISRDNAKNTVYLQMNSLKPEDTAVYFCAAVRHRNYGYWGQGTQVTVSS', 'high polyreactivity'),
  ('QVQLQESGGGLVQAGGSLRLSCAASGTIFRFRYMGWHRQAPGKERELVAGINGGTTTYYADSVIGRFTISRDNAIKTVYLQMNSLKPDDTAVYNCAAGASRLTYYDYWGQGTQVTVSS', 'low polyreactivity'),
  ('QVQLVESGGGLFQAGGSLRLSCAASGRTFYKYAMGWYRQAPGKERELVATITSGGSTNYADSVKGRFTISRDNAKNTVYLQLNCLKPEETAVYYFAARGHIYKIRDPYWTHDFWGQGTQVTVSS', 'low polyreactivity'),
  ('QVQLVESGGGLVQAGGSLRLSCAASGSTFGYYAMGWYRQAPGKERELVASITWGGGSTYYADSVKGRFTISRDNAKNTVYLQMNSLNPEDTAVYYCAATILGGTWGYGSYTYYYWGQGTQVTVSS', 'low polyreactivity');

Q: Item QVQLVESGGGLVQAGGSLRLSCAASGRIFWYYTMGWYRQAPGKERELVAAISNGGSTYYADSVKGRFTISRDNAKNTVYLQMNSLKPEDTAVYYCAAVGARGGYFRMDYWGQGTQVTVSS has what recorded polyreactivity (PSR sort gate)?
Result: high polyreactivity

Q: Then QVQLVESVGGLVQAGGSLRLSCAASGSSIPYYAMGWYRQAPGKERELVARITWRSTSTYADSVKGRFTISRDNAKNTVYLQMNSLKPEDTAVYYCAVRLLSTYIIEYEHWGQGTQVTLSS ?
Result: low polyreactivity

Q: Next entry: QVQLVESGGGLVQAGGSLRLSCAASGRTFGLNAMGWYRQAPGKERELVAVITSSGGSTYYADSVKGRFTISRDNAKNTVYLQMNSLKPEDTAVYYCAARPPYTDSSPGERTYDYWGQGTQVTVSS
Result: low polyreactivity

Q: Please answer likewise for QVLLVESGGGLVQAGGSLRLSCAASGYIIDVNAMGWYRQAPGKERELVASISSGTSTYYADSVKGRFTISRDNAKNTVYLQMNSLKPEDTAVYYCNAGVEFAASLYYSDNYDYWGQGTQVTVSS
Result: low polyreactivity

Q: Would you kindly repeat that for QVQLVESGGGIVQAGGSLRLSCAASGSIFWVNVMGWYRQAPGKEREFVAAITRSGGSTYYADSVKGRFTISRDNAKNTVYLQMKSLKPEDTAVYYCNRRGRRGYDYWGQGTQVTVSS ?
Result: high polyreactivity

Q: Do the same for QVQLVESGGGLVQAGGSLRLSCAASGSIFVYNAMGWYRQAPGKEREWVAGITLIGGSTYYADSVKGRFTISRDNAKNTVYLQMNSLKPEDTAVYYCNADVAPGIFYGYDSWGQGTQVTVSS please
Result: low polyreactivity

Q: And then QVQLVESGGGLVQAGGSLRLSCAASGSTIYGYAMGSYRQAPGKERELVAAISISGGGTYYADSVKGRFTISRDNAKNTVYIQMNSLKPEDTAVYYCARRYFWGQGTQVTVSS , what is it?
Result: low polyreactivity

Q: Similarly, QVQLVESGGGLVQAGGSLRLSCAASGRTFSVYTMGWYRQAPGKERELVASINWSGGRTYYADSVKGRFTISRDNAKYSVYFQMISLKPEDTAVYYCAATGWRTLFDYWGQGTQVTVSS ?
Result: high polyreactivity
